FYI, the data here is from patent US12599136B2.

# System: Digitaria sanguinalis
# assay_procedure: Post-emergence herbicidal action against DIGSA
# Type: in vivo
# condition_summary: 20 g/ha
assay_readout: Post-emergence action against DIGSA in % (%)
Give the value, in units of %, as a plain number.

CCN(C)C(=O)c1c(C(F)F)ccc(C(=O)Nc2nnnn2C)c1Cl [Example 1-155]	80
CCN(CC)C(=O)c1c(C(F)(F)F)ccc(C(=O)Nc2nnnn2C)c1Cl [Example 1-135]	90
CCn1nnnc1NC(=O)c1ccc(C(F)(F)F)c(C(=O)N(C)C2CC2)c1C [Example 2-21]	90
CCN(C)C(=O)c1c(C(F)F)ccc(C(=O)Nc2nnnn2CC)c1Cl [Example 2-155]	80
CCn1nnnc1NC(=O)c1ccc(C(F)(F)F)c(C(=O)N(C)C)c1C [Example 2-19]	90
CN(C)C(=O)c1c(C(F)F)ccc(C(=O)Nc2nnnn2C)c1Cl [Example 1-154]	90
CCn1nnnc1NC(=O)c1ccc(C(F)(F)F)c(C(=O)N(C)C2CC2)c1Cl [Example 2-125]	90
CCN(CC)C(=O)c1c(C(F)(F)F)ccc(C(=O)Nc2nnnn2C)c1C [Example 1-31]	90
Cc1c(C(=O)Nc2nnnn2C)ccc(C(F)(F)F)c1C(=O)N(C)CC(F)F [Example 1-24]	100
CCN(C)C(=O)c1c(C(F)(F)F)ccc(C(=O)Nc2nnnn2C)c1C [Example 1-20]	80

INPUT: Looking for the measured Post-emergence action against DIGSA in % of CCN(CC)C(=O)c1c(C(F)F)ccc(C(=O)Nc2nnnn2CC)c1Cl [Example 2-166] , can you help?
OUTPUT: 90

INPUT: Try this compound too: CCN(C(=O)c1c(C(F)(F)F)ccc(C(=O)Nc2nnnn2CC)c1C)C1CC1 [Example 2-32]
OUTPUT: 90

INPUT: Try this compound too: CN(C(=O)c1c(C(F)(F)F)ccc(C(=O)Nc2nnnn2C)c1Cl)C1CC1 [Example 1-125]
OUTPUT: 100

INPUT: Try this compound too: CCN(CC)C(=O)c1c(C(F)F)ccc(C(=O)Nc2nnnn2C)c1Cl [Example 1-166]
OUTPUT: 90
